The reported numbers originate from PubChem BioAssay (NCI).

System: SK-MEL-28 melanoma
Assay: NCI tumour cell line growth inhibition, 48 h
TGI for assorted compounds

> print(dat)
                                    compound  reported.value
 1  CC(=O)OCC1OC(N2C(=O)C(=O)c3ccccc32)C(OC(C)=O)C(OC(C)=O)C1OC(C)=O (stereo not drawn)        > 100 µM
 2  CC1(C)CC2C(=O)c3ccccc3NC2c2ccccc21 (stereo not drawn)        > 100 µM
 3             CSC(=NCCc1c[nH]c2ccccc12)NC#N        > 100 µM
 4  Cn1c2c(c3ccccc31)CCN(CCN1CCN(c3cccc(Cl)c3)CC1)C2=O        > 100 µM
 5    Oc1[nH]c2ccccc2c1N=NC(=S)Nc1ccc(Cl)cc1        > 100 µM
 6         CSC1=Nc2ccccc2N=C(c2ccc(Cl)cc2)C1        > 100 µM
 7  CC(C)(C)C(=O)[CH-]C(=O)C(C)(C)C.CC(C)(C)C(=O)[CH-]C(=O)C(C)(C)C.CN(C)c1ccc([O-])cc1.CN(C)c1ccc([O-])cc1.[Ti+4]        > 100 µM
 8                 CN(C)CCC(=O)/C=C\c1ccccc1         30.9 µM
 9            O=C(N/N=C/c1cccc(F)c1)c1ccncc1        > 100 µM
10  Cc1ccc(-c2nc3nc(-c4ccc(F)cc4)nc(N4CCCNCC4)c3o2)cc1         3.23 µM

Look at this compound and give its reported TGI. N#Cc1c(-c2ccccc2)cc(-c2ccc(Cl)cc2)[nH]c1=S
80.1 µM

What do you have for CN(C)C(=S)/N=c1\ssc(=S)n1Cc1ccncc1 ?
> 100 µM

Request: Cc1cnc2c(c1)C(=O)C1=C(C2=O)C2OC(=O)CC2OC1(C)C (stereo not drawn)
2.04 µM
